Numbers sourced from ChEMBL document CHEMBL3885861.

I'd be grateful if you could share measured ALP for these entries.
Species: Rattus norvegicus
experimental.details: Open TG-GATES - Regimen: Daily Repeat
Assay type: toxicity, organism-based, Sprague-Dawley
Set-up: regimen Daily Repeat, gender Male, age 6 weeks
recorded.conditions: in vivo, po, 300 mg/kg, […], tissue Plasma, route gavage, dose level Middle, time 28 day
Reply with just the number (in IU/L).

Can you look up the measured ALP of CCN1CCCC1CNC(=O)c1cc(S(N)(=O)=O)ccc1OC (centres undefined) [SULPIRIDE] for me?
1073.6

For CC(C)(S)[C@@H](N)C(=O)O , what is its reported ALP?
911.4

Would you mind telling me what ALP value was observed for O=C(N[C@H](CO)[C@H](O)c1ccc([N+](=O)[O-])cc1)C(Cl)Cl ?
1176.8

Data request, read-out ALP, for O=C(O)c1cccnc1
1059.8
